testedSystem: Human recombinant adenosine A2A receptors (Homo sapiens)
Construct: expressed in transfected cells; host or cells: HEK-293
Sequence (P29274 whole entry): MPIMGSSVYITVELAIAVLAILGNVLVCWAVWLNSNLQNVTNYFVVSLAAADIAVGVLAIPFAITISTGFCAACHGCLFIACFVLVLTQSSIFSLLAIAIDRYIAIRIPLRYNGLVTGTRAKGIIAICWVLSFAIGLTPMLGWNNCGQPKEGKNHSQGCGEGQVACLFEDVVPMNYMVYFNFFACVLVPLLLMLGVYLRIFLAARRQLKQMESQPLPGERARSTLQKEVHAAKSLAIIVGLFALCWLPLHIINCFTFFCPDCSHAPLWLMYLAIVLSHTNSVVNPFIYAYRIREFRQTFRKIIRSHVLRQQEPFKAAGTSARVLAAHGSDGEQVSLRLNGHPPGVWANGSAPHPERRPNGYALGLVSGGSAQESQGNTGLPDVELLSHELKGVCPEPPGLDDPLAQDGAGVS
assayMethodText: A2A receptor radioligand binding inhibition ([3H]CGS-21680)
testParameters: screened at 10 μM; mean of two replicates
# inhibition at 10 µM listing for each entry below
readoutType: inhibition at 10 µM (%)

molecule="CN1CC(C(=O)NCC(F)(F)F)C=C2c3cccc4[nH]cc(c34)CC21 (stereo not shown) [Compound 3, lysergic acid mono-(trifluoroethyl)amide]" testedsystem="Human recombinant adenosine A2A receptors (Homo sapiens)" reading=-2
molecule="CCN(CC)C(=O)C1C=C2c3cccc4[nH]cc(c34)CC2N(CCF)C1 (stereo not shown) [Compound 2]" testedsystem="Human recombinant adenosine A2A receptors (Homo sapiens)" reading=-2.5
molecule="CN1CC(C(=O)N2CC3(COC3)C2)C=C2c3cccc4[nH]cc(c34)CC21 (stereo not shown) [Compound 1]" testedsystem="Human recombinant adenosine A2A receptors (Homo sapiens)" reading=-12.3
molecule="CCN(CCF)C(=O)C1C=C2c3cccc4[nH]cc(c34)CC2N(C)C1 (stereo not shown) [Compound 4, lysergic acid monofluoro diethylamide]" testedsystem="Human recombinant adenosine A2A receptors (Homo sapiens)" reading=12.3

Values from patent US20230286975A1
